Reference source: the supplement of paper PMC10567573

B1: EPB41L3 (parent)
chain: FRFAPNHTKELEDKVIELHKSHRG

# Variants of: B1
# Assay Explanation: protein stability index of a GFP-peptide fusion (GPS, HEK-293T) (PSI 1-6); higher = more stable;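 also: lentivirally expressed fusions sorted by FACS into six bins by GFP to DsRed ratio, PSI derived from sequencing read proportions per bin multiplied by bin number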
# Reported Conditions: c terminus: a fixed tail appended
Experimental Readout: protein stability index

Item Sequence	Experimental Readout	Result Number
FRFTPNHTKELEDKVIELHKSHRG [A4T]	protein stability index	2.24
FRFAPNHTKELEPKVIELHKSHRG [D13P]	protein stability index	1.78
FRFAPVHTKELEDKVIELHKSHRG [N6V]	protein stability index	1.53
FRFAPNHTKEEEDKVIELHKSHRG [L11E]	protein stability index	1.97
FRFAPNHTKELEDKVIELHDSHRG [K20D]	protein stability index	1.96
FRFAPNHTKELKDKVIELHKSHRG [E12K]	protein stability index	1.96
FRFAPNHTKELEDKVIELHKQHRG [S21Q]	protein stability index	2.59
FRFAPNSTKELEDKVIELHKSHRG [H7S]	protein stability index	1.93
FRFAPNHTKELEDKVIEGHKSHRG [L18G]	protein stability index	2.02
RRFAPNHTKELEDKVIELHKSHRG [F1R]	protein stability index	4.41
FRFAPNHTKEMEDKVIELHKSHRG [L11M]	protein stability index	1.83
FRFAPNHTKLLEDKVIELHKSHRG [E10L]	protein stability index	1.9
FRKAPNHTKELEDKVIELHKSHRG [F3K]	protein stability index	4.63
FRFAPNVTKELEDKVIELHKSHRG [H7V]	protein stability index	1.85
FRFAPNHTKELEDKVIELHCSHRG [K20C]	protein stability index	2.09
FRFAPNHTKELEEKVIELHKSHRG [D13E]	protein stability index	2.8
FRFAPNHTKELEDRVIELHKSHRG [K14R]	protein stability index	1.97
FRFAPNHTKELEDKVIELHKSVRG [H22V]	protein stability index	1.67
FRFAPNHTKELERKVIELHKSHRG [D13R]	protein stability index	2.77
FRFAPNHTRELEDKVIELHKSHRG [K9R]	protein stability index	1.7
FRFAPNHTKELEDFVIELHKSHRG [K14F]	protein stability index	1.8
FRFAPNHTKELEDKVIELHPSHRG [K20P]	protein stability index	2.64
FRFAPNHTKELEDKVQELHKSHRG [I16Q]	protein stability index	2.12
FRFAPNHTSELEDKVIELHKSHRG [K9S]	protein stability index	2.88
FRFAPNHTKELEDKVAELHKSHRG [I16A]	protein stability index	2.46
FRFAPNHTKCLEDKVIELHKSHRG [E10C]	protein stability index	1.46
FRFHPNHTKELEDKVIELHKSHRG [A4H]	protein stability index	2.42
FRFACNHTKELEDKVIELHKSHRG [P5C]	protein stability index	2.4
FRFAPNHTKELEDKVIELHKSHDG [R23D]	protein stability index	2.84
FRFKPNHTKELEDKVIELHKSHRG [A4K]	protein stability index	3.06
FRFAPNITKELEDKVIELHKSHRG [H7I]	protein stability index	2.09
FRFAPNHTKELEDKVIEWHKSHRG [L18W]	protein stability index	1.78
FRFAPNHTKELEDKVIELHKSHPG [R23P]	protein stability index	1.93
FRFAPNHTKELEDKVIECHKSHRG [L18C]	protein stability index	2.9
FRFAPNHTKELVDKVIELHKSHRG [E12V]	protein stability index	1.45
FRFAPLHTKELEDKVIELHKSHRG [N6L]	protein stability index	2.37
FRFAPIHTKELEDKVIELHKSHRG [N6I]	protein stability index	1.55
FRFAPNHTKELEDKEIELHKSHRG [V15E]	protein stability index	2.23
FRFAPKHTKELEDKVIELHKSHRG [N6K]	protein stability index	1.92
FRFAPNHTKELEDKVIELHMSHRG [K20M]	protein stability index	1.81
FREAPNHTKELEDKVIELHKSHRG [F3E]	protein stability index	4.57
FRFAPNGTKELEDKVIELHKSHRG [H7G]	protein stability index	2.42
FRFAPNHTKELEDWVIELHKSHRG [K14W]	protein stability index	1.96
FRFAPNHTKELEDKVIELHKDHRG [S21D]	protein stability index	2.56
FRFAPNHTKELEDKVIEKHKSHRG [L18K]	protein stability index	2.6
FRFAPNHTKELEDKVSELHKSHRG [I16S]	protein stability index	2.11
FRFAPNHTKYLEDKVIELHKSHRG [E10Y]	protein stability index	1.97
FRFAPNHTKELEDKVIEAHKSHRG [L18A]	protein stability index	3.07
FRFAPNHTKELEDKVIELHVSHRG [K20V]	protein stability index	2.71
FRFAENHTKELEDKVIELHKSHRG [P5E]	protein stability index	3.49
FRFAPQHTKELEDKVIELHKSHRG [N6Q]	protein stability index	2.02
FRFAPNHTKELEDKVIELHKSHGG [R23G]	protein stability index	3.6
FRFAPNHTKELEDKVWELHKSHRG [I16W]	protein stability index	2.13
FRFAPNETKELEDKVIELHKSHRG [H7E]	protein stability index	1.96
FRFAPNPTKELEDKVIELHKSHRG [H7P]	protein stability index	2.1
MRFAPNHTKELEDKVIELHKSHRG [F1M]	protein stability index	3.68
FRFAPNHTKELEYKVIELHKSHRG [D13Y]	protein stability index	1.95
FRFAPNHTKELEDKVIELHKSNRG [H22N]	protein stability index	2.34
FRFAPNHTKELEDKVIEYHKSHRG [L18Y]	protein stability index	1.36
FRFAPNHGKELEDKVIELHKSHRG [T8G]	protein stability index	1.86
FGFAPNHTKELEDKVIELHKSHRG [R2G]	protein stability index	3.94
FRFAPNHTKELEHKVIELHKSHRG [D13H]	protein stability index	1.89
FRRAPNHTKELEDKVIELHKSHRG [F3R]	protein stability index	3.6
FRFAPNHTKELEDKVIELHKSWRG [H22W]	protein stability index	1.65
FSFAPNHTKELEDKVIELHKSHRG [R2S]	protein stability index	3.56
FRFAPNHTKELEDKVIELFKSHRG [H19F]	protein stability index	1.95
FRFAPNNTKELEDKVIELHKSHRG [H7N]	protein stability index	2.16
FRFAPNHTKELEDKVDELHKSHRG [I16D]	protein stability index	3.22
FRFAPNHTKELEDKVIELHKSHYG [R23Y]	protein stability index	2.78
FRFAPNHTKELLDKVIELHKSHRG [E12L]	protein stability index	1.97
FRFAPNHTKELEDKVIELHKAHRG [S21A]	protein stability index	2.47
